# target.under.test: RNF31 UBA domain (Homo sapiens, UniProt Q96EP0)
# Construct: RNF31 UBA domain protein (residues 480-639) with N-terminal Thioredoxin-TEV-6×his-yBBr-3C tags; Thioredoxin (N, cleaved yes); made in house; host or cells: E. coli BL21 (DE3) pLysS
# Sequence (Q96EP0 480-639): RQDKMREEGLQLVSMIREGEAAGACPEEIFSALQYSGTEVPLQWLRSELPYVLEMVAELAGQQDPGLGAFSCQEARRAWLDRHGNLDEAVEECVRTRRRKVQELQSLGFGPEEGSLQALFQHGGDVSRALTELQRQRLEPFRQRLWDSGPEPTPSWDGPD
# assay.details: Phage Library Screening with NGS, RNF31 UBA domain
# Format: binding
# run.conditions: Target Concentration 300; no competitor
Hi, to clarify the labels: t covers phage screen NGS read-out at Target Concentration 300 from 10 upward, f covers anything below 10.

Task: Hi team, for DPAQNHCDSAAVFCYIL , is the recorded phage screen NGS read-out at Target Concentration 300 at or above 10?
Result: f

Task: Hi team, for DPAHEHCTAAASWCYIL , is the recorded phage screen NGS read-out at Target Concentration 300 at or above 10?
Result: f

Task: Hi team, for DPAEYHCDAAAVWCYLM , is the recorded phage screen NGS read-out at Target Concentration 300 at or above 10?
Result: t

Task: Hi team, for DPAFSTCVYAAIICNDT , is the recorded phage screen NGS read-out at Target Concentration 300 at or above 10?
Result: t

Task: Hi team, for DPAFSQCVYAAVVCEVQ , is the recorded phage screen NGS read-out at Target Concentration 300 at or above 10?
Result: t

Task: Hi team, for DPALSQCVYAAVFCQNL , is the recorded phage screen NGS read-out at Target Concentration 300 at or above 10?
Result: f

Task: Hi team, for DPARYHCEAAAAWCELL , is the recorded phage screen NGS read-out at Target Concentration 300 at or above 10?
Result: f

Task: Hi team, for DPAFSQCIYAAFQCDMQ , is the recorded phage screen NGS read-out at Target Concentration 300 at or above 10?
Result: f

Task: Hi team, for DPASMVCLSAAVYCAMH , is the recorded phage screen NGS read-out at Target Concentration 300 at or above 10?
Result: t

Task: Hi team, for DPAYEHCVAAAYWCYLL , is the recorded phage screen NGS read-out at Target Concentration 300 at or above 10?
Result: t

Task: Hi team, for DPADLLCHMAAQNCLYR , is the recorded phage screen NGS read-out at Target Concentration 300 at or above 10?
Result: f

Task: Hi team, for DPATLVCTMAANNCIYR , is the recorded phage screen NGS read-out at Target Concentration 300 at or above 10?
Result: f

Task: Hi team, for DPASSHCQSAAIWCYLM , is the recorded phage screen NGS read-out at Target Concentration 300 at or above 10?
Result: t

Task: Hi team, for DPAFSLCVYAALFCEQQ , is the recorded phage screen NGS read-out at Target Concentration 300 at or above 10?
Result: t

Task: Hi team, for DPAAYLCDMAAHNCLYL , is the recorded phage screen NGS read-out at Target Concentration 300 at or above 10?
Result: f

Task: Hi team, for DPAFSECVYAAFSCSWI , is the recorded phage screen NGS read-out at Target Concentration 300 at or above 10?
Result: f

Cited source for all entries: patent US20240376151A1
